Tested on: K4 kissing-loop RNA reporter
Assay: apparent KD of K4 kissing-loop reporter; higher = weaker reporter binding
Conditions: Eterna round: R107; input ligand: tryptophan 2.4 mM
Exercise: for every item that follows, state its recorded apparent KD of K4 kissing-loop reporter.
One number for each entry, in nM.

The examples below pair each entry with its known result.
AGGAGCGUGGGAUGAAAAUCGCACGCUCCUCGAGGACCGGUACGGCCGCCACUCGCUCGCGCCGAGUGAUGUUCGGCCGGCGAAC [#2 Same State - Tryptophan A Attempt #12 (HarryS)]; 556
GGAGGCCAGGCCUGCGAAGUGAUGUUUUGACGAGGACCGGUACGGCCGCCACUCGAAUGUUCUAUCAUCGUACGAACUUCUGCGU [theeternabot_exclusion_KL_Trp_A_26]; 394
AAUAAUAAUAAAUAUAGAUUGAUGAGGAAACGAGGACCGGUACGGCCGCCACUCGAGUGAUGUUCGAGAACCUCAUCAAUCAUAA [AK4.7 Exc Tryptophan A]; 382
CUAUAAGUGCCGAGUGAUGUUCGGCCAAUACGAGGACCGGUACGGCCGCCACUCGGUCAGUGAGUGCCCACCGGGCGUGGCUGAC [Leedgeis]; 124
UUUGCAAAGUCGGCCGCCACUCCGGGCCCUAUAAAUGGGCGCAGUGAUGUUGCGGCUAGGCCUCUGAGGACCGGGACUUUGUAAA [Inusleve]; 179
CUCACAGUGAUGUUGUGGGCCGAGAGUGAUACCAGCCGUAUUUGUGGCCCUUGGCAGCGCAGAACCAGUGAUGUUGGUUACUUGG [Same State Theophylline A GF 23]; 238
UAAUUUAUGUCUUUAAUAUAAUUUUCAGAUACCAGUGAUUAUUAACACCCUUGGCAGCUGUAUAGAGUGAUGUUCUUAUGCUUAA [JR_ExcTheophyA_Sub009]; 156
GUAGAUAGGCAACAUCCCUAGUCUACAGACUAGGAUAUCAGGAAACUGAGAAGGAGUCUCCUUGCAGUGAUGUUGCAAGAAUAAU [[F]''-[K]'-[F]'-[F1]-[F2]-[K1]-[K2]_Design5]; 161

Need apparent KD of K4 kissing-loop reporter for each of these sequences.
1. UUUAUUAAGACGGCCGCCACUGAUUCAUAGUGAUGUUAUGAUAUAAUUUUAGUGAUAUGCAUUAGCAGGACCGGGUCAAUUAUUA [JR_ExcTryptoB_Sub017]
2. AGAUUCGACACGGCCGCCACUUCCGGUGGCUGGUGUCAUGGUGCGCGUGAGUGAUGUUUAUGUGGAAGGACCGGGUGUUGAGUCU [whbob_Ex_Tryp_B_w41]
3. CUUCUCCUUCCAAUCUCGGCCAACACGGGACGAGGACCGGUACGGCCGCCACUCGUGCAGUGAUGUUGCACGAUGGUGACGGAGA [Queronmaan]

173
872
217

---

Test system: MS2 coat protein
Assay: apparent KD of MS2 coat protein; higher = weaker reporter binding
Settings: Eterna round: R107; input ligand: none
Exercise: for every item that follows, state its recorded apparent KD of MS2 coat protein.
One number for each entry, in µM.

The examples below pair each entry with its known result.
AAACGUUGCUGCGAUACCAGACAUGAGGAUCACCCAUGUACCAAGGUAACCGAAAGGCAUGUCCCUUGGCAGCGCAGCAACGAAA [MAT - Exclusion Theophlline B - Mod of Eli - D17]; 0.0111
GCAUCCUAGUCGGCCGCCACUGCGAAUAGGUCCUGAGUGAUCUAACAUGAGGAUCACCCAUGUAGCAGGACCGGGACUAGGAUGC [(Trp1)-(TM)''-(TM)'-(Ms2)-(Trp2)_Design5]; 0.0165
GCCAUCGGCGGAAGCCGAUGGUAUACAGAAGGAGCGUAGGAAACUACAGGUAGGUCGCUGGACAUGAGGAUCACCCAUGUAAUAG [#27 Same State - Arginine A]; 0.0152
AGCACUGUGACGGCCGCCACUACAUAAAUUGGGUGGUCAGGUUCAUUACAUGAGGAUCACCCAUGUAGGACCGGGUCUCAGUGCA [Omei Trp Exc B A v8]; 0.0115

Look up apparent KD of MS2 coat protein: GGACUAACCAGAAGGAGCGGCGCGCAGAAACUGCAAAAUCCUCCGCACGAGGAUCACCCGUGUCAGGUAGGUCGCUGGUUAGUCG [ArgBX 28] 0.0177

---

Test system: K4 kissing-loop RNA reporter
Assay: apparent KD of K4 kissing-loop reporter; higher = weaker reporter binding
Settings: Eterna round: R107; input ligand: FMN 200 uM
Reported property: apparent KD of K4 kissing-loop reporter (nM)
Numbers only, in nM.

Need apparent KD of K4 kissing-loop reporter for each of these sequences.
1. GCGCGCGGCGGAGGAUAUAGCAGGUGAUCCGAGAAAGUGAGUGAUGUUUACGGAGAUGAUGAUAUGUUAGAAGGCCGCCGCGCGC [abcdefghijklmnopqrstuv]
2. UGGAGUUGACGAAAAGUCAACUCCCGAGAAGGAGCGGACGAAAGUCCAGGUAGGUCGCUCACUACCAGUGAUGUUGGUACUUAAA
3. UGUGAUGUGUAGAGUGAUGUUUUGAAGGAUACCAGAGUGUUGUUAUUCCCUUGGCAGCUUGAGUGAUGUUUGAUGUUGUUGUUGU [efvrmullin]
4. AGACUACCACACUGUCAAUAGACAGUGAACUAGGAUAUGCUGAUAAGCAGAAGGAGUGAUGUUCCUCGGUAGUCAAUAAAAUAAU [FmnAX 13 C67]
5. CAUGGAGUGAUGCUCCAUGGUCGGGCUUGGCAGGAUAUGGGAUCUUCCAGAAGGGCCGAUCCCGGCGAGUGAUGUUCGCUGGUCU [Exclusion FMN A GF 28]
6. UUAGGAGUGGGAGGAUAUCCUAAUGUGGGUGAUGUUAGCGAUGUUGAAAGUGUAGUGAUGUUGUGCGGAGAAGGUCCAGUGUUGA [BDazzled - #12 - Exc. FMN B]

1. 515
2. 138
3. 228
4. 419
5. 167
6. 197

---

Test system: K4 kissing-loop RNA reporter;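 further: bound reporter read as fluorescence of individual clusters on recovered sequencing chips by microscopy, with normalized cluster intensities fitted with a binding model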
Assay: apparent KD of K4 kissing-loop reporter; higher = weaker reporter binding
Details: Eterna round: R107; input ligand: arginine 13.2 mM
Reported property: apparent KD of K4 kissing-loop reporter (nM)
Answers are plain numbers, in nM.

The examples below pair each entry with its known result.
AAAUAACAGGCAGGAUAUGCUUAGUAAUAAGGCCAUAUAUACGUAUAGAGUGAUGUUUUGUACAAAGCAGAAGGGCUAAAUCCAU [FMN B Excl V1]; 151
GAUUCCCAAGCGGCCGCCACUUAUAGUGAUGUUAUAGGGACUGCGGAUCAGGACAAUCAUACAUAAAGGACCGGGCUAUUCUGAC [theeternabot_exclusion_KL_Trp_B_1]; 246
UAAGAAUAAGUAGCAGUGAUGUUGCUACUGCGAGGACCGGUACGGCCGCCACUCGAGUCCUCGAAGCGUCACUGAACGAGGAAUA [whbob_SS_Tryp_A_m13]; 283
UUUAUAAAGUCGGCCGCCACUGGAUUUAUAUUUGUUUAGUCUGGAUCAAAGUGAUGUUUUGAGUCCAGGACCGGGACAUUUGUUA [whbob_Ex_Tryp_B_w36]; 85.9
UGUAAGUGUCAGCGAGUGAUGUUCGACGAUACCAGACUCGAUAGAGUCCCUUGGCAGCGUAAUGCAUGCCAAACUGGCACAUACU [#SwitchBubble 11 #K4Early]; 438

Consider the additional sequence presented here.
Query for K4 kissing-loop RNA reporter: what apparent KD of K4 kissing-loop reporter does the record show for UAAUUUAUGUCUUUAAUAUAAUUUUCAGAUACCAGUGAUUAUUAACACCCUUGGCAGCUGUAUAGAGUGAUGUUCUUAUGCUUAA [JR_ExcTheophyA_Sub009] ? 314

---

Test system: MS2 coat protein
Experiment: apparent KD of MS2 coat protein; designed switch direction (-1 OFF switch, 1 ON switch): -1; higher = weaker reporter binding
Conditions: input ligand: FMN 200 uM
Exercise: for every item that follows, state its recorded apparent KD of MS2 coat protein.
Give bare numbers, in nM.

The examples below pair each entry with its known result.
ACUGGUCAUGAGGAUAUGCGCCAGAACGCCGGCGUAGAAGGCGUGACAUGAGGAUCACCCAUGUCAGUUCGCGA [eternacac ex6r4 sub30] (Eterna round: R97, puzzle: Exclusion 6); 39.1
CGUAAAAGGAAGGAUAUGCUAGACGAAAGUCUAGCAGAAGGUCCUACAUGAGGAUCACCCAUGUGUCCUAUACG [Mat - Exclusion 6 - Eli Mod - D12] (Eterna round: R97, puzzle: Exclusion 6); 80.5

Consider the additional sequence presented here.
Look up apparent KD of MS2 coat protein: UUUGCAAGCUUAUGAUCCCACAUGAGGAUCACCCAUGUUGCUGCCGGUGACGGUAGCAUAACAUAUGCUCGUCUUAU [JL TOV1 3.63] (Eterna round: R97, puzzle: Sensor, turn-off variant 1) 791
